assay: Acute toxicity in mice; conditions: mouse, in vivo, ip, read-out: LD50 i.p.
parameter: LD50 (mg/kg)
Field format: number, assumed mg/kg, no unit text.

compound | units.symbol | numeric.value
CC(=O)N1N=C(c2ccc(NC(=O)CN)cc2)c2cc3c(cc2CC1C)OCO3 (centres unmarked) | mg/kg | 143
COCC(=O)Nc1ccc(C2=NN(C(C)=O)C(C)Cc3cc4c(cc32)OCO4)cc1 (centres unmarked) | mg/kg | 117

// recorded LD50 for CC(=O)N1N=C(c2ccc(N)cc2)c2cc3c(cc2CC1C)OCO3 (centres unmarked) [Example 15 (16)] : 127

// recorded LD50 for CC1=NN=C(c2ccc(NC(=O)CN)cc2)c2cc3c(cc2C1)OCO3 : 205

// recorded LD50 for CC(=O)N1N=C(c2ccc(NC(=O)C(F)(F)F)cc2)c2cc3c(cc2CC1C)OCO3 (centres unmarked) : 136

// recorded LD50 for CC(=O)Nc1ccc(C2=NN(C(C)=O)C(C)Cc3cc4c(cc32)OCO4)cc1 (centres unmarked) : 120

// recorded LD50 for CCC(=O)Nc1ccc(C2=NN(C(C)=O)C(C)Cc3cc4c(cc32)OCO4)cc1 (centres unmarked) : 103

---

assay: AMPA induced spreading depression in isolated chicken retina; assay type: cell-based; conditions: AMPA (5 μM)
Parameter: pIC50. Scope: all listed entries.
Worth noting: pIC50 values are minus log10 of concentrations stated in mol/L.

Some solved entries appear below for comparison.
compound | numeric.value
CNC(=O)N1N=C(c2ccc(N)cc2)c2cc3c(cc2CC1C)OCO3 (single isomer, unassigned; (-)) | 5.77
CC1=NN=C(c2ccc(N)cc2)c2cc3c(cc2C1)OCO3 [GYKI 52466, reference compound] | 5.20
CC(=O)N1N=C(c2ccc(N)cc2)c2cc3c(cc2CC1C)OCO3 (stereo not shown) [Example 15 (16)] | 5.43

Query compound follows.
// recorded pIC50 for CC(=O)N1N=C(c2ccc(N)cc2)c2cc3c(cc2CC1C)OCO3 (single isomer, unassigned; (-)) [Example 128] : 6.00

---

Parameter: IC50. Scope: all listed entries.
system: AMPA receptors; test: Inhibition of synaptic field potentials in rat neocortex slices; format: cell-based
Field format: number, assumed µM, no unit text.

compound | target.system | numeric.value
CC(=O)N1N=C(c2ccc(N)cc2)c2cc3c(cc2CC1C)OCO3 (centres unmarked) | AMPA receptors | 21.5

Query compound follows.
// recorded IC50 for CC1=NN=C(c2ccc(N)cc2)c2cc3c(cc2C1)OCO3 [GYKI 52466, reference compound] : 30

---

tested on: male CFLP mice; assay: Anticonvulsive effect in mice, nicotine; format: in vivo; conditions: Mus musculus, po
Under this convention, 1.0 denotes ED50 strictly below 30 mg/kg and 0.0 denotes ED50 at or above 30 mg/kg.

compound | qualitative.label
O=C1NC(=O)C(c2ccccc2)(c2ccccc2)N1 [Phenytoin, 5,5-diphenyl-2,4-imidazolidinedione, reference compound] | 1.0
CC1=NN=C(c2ccc(NC(=O)CN)cc2)c2cc3c(cc2C1)OCO3 [Example 66] | 0.0
CC(=O)N1N=C(c2ccc(NC=O)cc2)c2cc3c(cc2CC1C)OCO3 (stereo not shown) [Example 46] | 0.0

Query string: I wonder whether CC(=O)Nc1ccc(C2=NN(C(C)=O)C(C)Cc3cc4c(cc32)OCO4)cc1 (stereo not shown) [Example 42] has ED50 below 30 mg/kg. Can you tell?
Result string: 0.0

Query string: I wonder whether COCC(=O)Nc1ccc(C2=NN(C(C)=O)C(C)Cc3cc4c(cc32)OCO4)cc1 (stereo not shown) [Example 52] has ED50 below 30 mg/kg. Can you tell?
Result string: 1.0

Query string: I wonder whether CC(=O)N1N=C(c2ccc(NC(=O)CN(C)C)cc2)c2cc3c(cc2CC1C)OCO3 (stereo not shown) [Example 107] has ED50 below 30 mg/kg. Can you tell?
Result string: 0.0

Query string: I wonder whether CCC(=O)N1N=C(c2ccc(N)cc2)c2cc3c(cc2CC1C)OCO3 (stereo not shown) [Example 18] has ED50 below 30 mg/kg. Can you tell?
Result string: 1.0

---

experiment: Acute toxicity in mice; details: mouse, in vivo, po, read-out: LD50 p.o.
parameter: LD50

Some solved entries appear below for comparison.
molecule | result
CC(=O)N1N=C(c2ccc(N)cc2)c2cc3c(cc2CC1C)OCO3 (single isomer, unassigned; (-)) [Example 128] | ~100 mg/kg
CNC(=O)N1N=C(c2ccc(NC(=O)CN)cc2)c2cc3c(cc2CC1C)OCO3 (stereo not shown) | 200 to 250 mg/kg
CNC(=O)N1N=C(c2ccc(N)cc2)c2cc3c(cc2CC1C)OCO3 (single isomer, unassigned; (-)) [Example 123] | 75 to 100 mg/kg

Query molecule follows.
// recorded LD50 for CC(=O)N(C(C)=O)c1ccc(C2=NN(C(C)=O)C(C)Cc3cc4c(cc32)OCO4)cc1 (stereo not shown) : > 600 mg/kg

---

tested on: male CFLP mice; assay: Anticonvulsive effect in mice, nicotine; format: in vivo; conditions: Mus musculus, po
Under this convention, YES denotes ED50 strictly below 20 mg/kg and NO denotes ED50 at or above 20 mg/kg.

molecule | qualitative.label
CCC(=O)Nc1ccc(C2=NN(C(C)=O)C(C)Cc3cc4c(cc32)OCO4)cc1 (stereo not drawn) | NO
CC1=NN=C(c2ccc(N)cc2)c2cc3c(cc2C1)OCO3 [GYKI 52466, reference compound] | NO
CN1C(=O)CN=C(c2ccccc2)c2cc(Cl)ccc21 [Diazepam, reference compound] | YES
CCC(=O)N1N=C(c2ccc(NC(C)=O)cc2)c2cc3c(cc2CC1C)OCO3 (stereo not drawn) | NO

Query string: I wonder whether CCC(=O)Nc1ccc(C2=NN(C(=O)CC)C(C)Cc3cc4c(cc32)OCO4)cc1 (stereo not drawn) has ED50 below 20 mg/kg. Can you tell?
Result string: NO

Query string: I wonder whether CC(=O)N1N=C(c2ccc(NC(=O)C(F)(F)F)cc2)c2cc3c(cc2CC1C)OCO3 (stereo not drawn) has ED50 below 20 mg/kg. Can you tell?
Result string: NO
